biological target: HCV polymerase (NS5B) type 1b (Hepatitis C virus genotype 1b); construct: a region encoding NS5B (J Virol 1991 March, 65(3), 1105-13, 544 amino acids after deletion of 47 amino acids on the C-terminal); 6xHis (C); made in house; host or cells: Escherichia coli; assay: Assay of enzyme (HCV polymerase) inhibitory activity, type 1b enzyme; assay type: biochemical, HCV BK strain (type 1b); conditions: HCV polymerase inhibitory activity (IC50), 1b, type 1b enzyme 0.5 μg/ml, 25° C., 60 min
readout-type: IC50

Please review the following examples before continuing.
>>> df
                                   molecule    reading
0  CC(=O)N1CCN(S(=O)(=O)c2ccc(C(C)C)cc2)C(C(=O)NCc2cccc(Cl)c2)C1 (stereo not shown)  > 1000 nM
1  CC(=O)N1CCN(S(=O)(=O)c2ccc(I)cc2)C(C(=O)NCc2ccc(N(C)C)cc2)C1 (stereo not shown)  > 1000 nM
2  CCN(CC)c1ccc(CNC(=O)[C@H]2CN(c3nc(C)c(C(=O)O)s3)CCN2S(=O)(=O)c2ccc(OC(F)(F)F)cc2)cc1   < 100 nM

Q: Query IC50 for CC(=O)N1CCN(S(=O)(=O)c2cccc(Cl)c2)C(C(=O)NCc2ccc(C(F)(F)F)cc2)C1 (stereo not shown)
Ans: > 1000 nM

Q: Please give the documented IC50 of CC(=O)N1CCN(S(=O)(=O)C2CCCCC2)C(C(=O)NCc2ccc(C(F)(F)F)cc2)C1 (stereo not shown)
Ans: > 1000 nM

Q: Write down IC50 measured for item CCC(F)(F)c1ccc(CNC(=O)[C@H]2CN(C(=O)Cc3ccncc3)CCN2S(=O)(=O)c2ccc(OC(F)(F)F)cc2)cc1
Ans: < 100 nM

Q: Give a short answer stating reported IC50 for COc1ccc(S(=O)(=O)N2CCN(C(C)=O)C[C@@H]2C(=O)NCc2ccc(C(C)C)cc2)cc1C(C)(C)C .
Ans: < 100 nM

====

target: HCV polymerase (NS5B) type 1a (Hepatitis C virus genotype 1a, UniProt P26664); construct: made in house; host or cells: Escherichia coli (by the 'similar method' of the 1b enzyme); assay: Assay of enzyme (HCV polymerase) inhibitory activity, type 1a enzyme; format: biochemical, HCV type 1a (cloned from the blood of patients); conditions: HCV polymerase inhibitory activity (IC50), 1a, type 1a enzyme 1.5 μg/ml, 25° C., 60 min
pIC50: −log10 of the molar value.
Each entry below lists one item and its recorded pIC50 value.

>>> print(df.to_string())
                            compound_smiles  reading
0  CC(C)(C)c1ccc(CNC(=O)[C@H]2CN(c3nc4cc[nH]c(=O)c4s3)CCN2S(=O)(=O)c2ccc(OC(F)(F)F)cc2)cc1   > 7.00

Q: Quote pIC50 reported for CCCc1ccc(CNC(=O)[C@H]2CN(C(=O)Cn3nnc(C)n3)CCN2S(=O)(=O)c2ccc(OC(F)(F)F)cc2)cc1 please.
Ans: > 7.00

====

biological target: HCV polymerase (NS5B) type 1a (Hepatitis C virus genotype 1a); construct: made in house; host or cells: Escherichia coli (by the 'similar method' of the 1b enzyme); experiment: Assay of enzyme (HCV polymerase) inhibitory activity, type 1a enzyme; format: biochemical, HCV type 1a (cloned from the blood of patients); conditions: HCV polymerase inhibitory activity IC50, 1a, type 1a enzyme
pIC50: −log10 of the molar value.
readout-type: pIC50

Look over these answered cases.
In [3]: df
Out[3]:
                                   compound  readout_type  reading
0  CCC(F)(F)c1ccc(CNC(=O)[C@H]2CN(C(=O)CC(=O)O)CCN2S(=O)(=O)c2ccc(OC(F)(F)F)cc2)cc1 [Example 678]         pIC50   < 6.00
1  CC(C)(C)NC(=O)c1cnc(N2CCN(S(=O)(=O)c3ccc(OC(F)(F)F)cc3)[C@@H](C(=O)NCc3ccc(OC(F)(F)F)cc3)C2)cn1 [Example 853]         pIC50   < 6.00
2  CCC(F)(F)c1ccc(CNC(=O)[C@H]2CN(c3cnc4cncnc4n3)CCN2S(=O)(=O)c2ccc(-c3ccccc3O)cc2)cc1 [Example 724]         pIC50   > 7.00

Q: Output pIC50 of CCC(F)(F)c1ccc(CNC(=O)[C@H]2CN(c3nc4ncncc4s3)CCN2S(=O)(=O)c2ccc(OC(F)(F)F)cc2)cc1 [Example 894]
Ans: > 7.00

Q: Supply measured pIC50 of O=C(NCc1ccc(OC(F)F)cc1)[C@H]1CN(c2nc3ncncc3s2)CCN1S(=O)(=O)c1ccc(OC(F)(F)F)cc1 [Example 932] in your reply.
Ans: > 7.00

Q: Name the recorded pIC50 of the item CC(C)NC(=O)c1cncc2ncc(N3CCN(S(=O)(=O)c4ccc(OC(F)(F)F)cc4)[C@@H](C(=O)NCc4ccc(OC(F)(F)F)cc4)C3)nc12 [Example 871] in your answer.
Ans: > 7.00
